Values were extracted from ChEMBL document CHEMBL1201862.

# Test system: RXF 631
# method_notes: NCI tumour cell line growth inhibition, 48 h
Calls of active or inactive are those of the source. Cut-off read from the data, not from the text of the source: active = GI50 up to about 1.1 µM and inactive = higher.
# GI50 per record follows

Some compounds with recorded GI50:
compound	readout_value
CCOc1cccc2c1N[S@@](=O)S2	> 100 µM (inactive)
CCOC(OC1=CCCC1)C(C)[Se]c1ccccc1 (stereo not given)	16.5 µM (inactive)
CCN(CC)CCCNc1ccc2nnn3c4ccc(O)cc4c(=O)c1c23	1.88 µM (inactive)

Value of measured GI50 for the entry `O=C(NC(=O)c1cn(CCN2CCN(C(=O)NCCCCCCNC(=O)N3CCN(CCn4cc(C(=O)NC(=O)OCc5ccccc5)c(=O)[nH]c4=O)CC3)CC2)c(=O)[nH]c1=O)OCc1ccccc1` : > 100 µM (inactive)

Value of measured GI50 for the entry `CC(=O)O/N=C/c1ncccc1OC(C)=O` : > 100 µM (inactive)

Value of measured GI50 for the entry `O=c1cc(-c2ccccc2)oc2cc(OCCCCCCCCCCOc3ccc4c(=O)cc(-c5ccccc5)oc4c3)ccc12` : > 100 µM (inactive)

Value of measured GI50 for the entry `CCOC(=O)CNC(=O)OCc1ccccc1` : > 100 µM (inactive)

Value of measured GI50 for the entry `O=S1(=O)COc2ccccc2-c2ncncc21` : > 100 µM (inactive)

Value of measured GI50 for the entry CC[C@H]1CNC(=O)CC1CC(=O)OC (stereo not given in full) : > 100 µM (inactive)

Value of measured GI50 for the entry `CCOC(=O)NC(=O)c1cn(CCCCCCCCCCC(=O)N2CCN(CCn3cc(C(=O)NC(=O)OCC)c(=O)[nH]c3=O)CC2)c(=O)[nH]c1=O` : > 100 µM (inactive)
